Values compiled from ChEMBL document CHEMBL1149188.

molecular target: Dihydrofolate reductase (Pneumocystis carinii)
measurementKind: IC50 (nM)

>>> numericvalue("Nc1nc(N)c2nc(CN3c4ccccc4C=Cc4cc(O)ccc43)cnc2n1")
31

* * *

molecular target: Dihydrofolate reductase (Pneumocystis carinii, UniProt P16184); assay: Concentration required to inhibit the Pneumocystis carinii Dihydrofolate reductase by 50% was determined; Range: 58-110
Sequence (P16184 whole entry): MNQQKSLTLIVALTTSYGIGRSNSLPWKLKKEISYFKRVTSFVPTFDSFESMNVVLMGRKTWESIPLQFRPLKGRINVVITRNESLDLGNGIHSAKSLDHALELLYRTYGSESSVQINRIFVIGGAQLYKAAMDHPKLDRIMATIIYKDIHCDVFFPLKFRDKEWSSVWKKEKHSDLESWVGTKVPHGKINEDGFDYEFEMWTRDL
pIC50: −log10 of the molar value.
measurementKind: pIC50

>>> numericvalue("Nc1nc(N)c2nc(CN3c4ccccc4C=Cc4ccccc43)cnc2n1")
7.10

* * *

biological target: Bifunctional dihydrofolate reductase-thymidylate synthase (Toxoplasma gondii); experiment: Concentration required to inhibit the Toxoplasma gondii Dihydrofolate reductase by 50% was determined
Sequence (Q07422 whole entry): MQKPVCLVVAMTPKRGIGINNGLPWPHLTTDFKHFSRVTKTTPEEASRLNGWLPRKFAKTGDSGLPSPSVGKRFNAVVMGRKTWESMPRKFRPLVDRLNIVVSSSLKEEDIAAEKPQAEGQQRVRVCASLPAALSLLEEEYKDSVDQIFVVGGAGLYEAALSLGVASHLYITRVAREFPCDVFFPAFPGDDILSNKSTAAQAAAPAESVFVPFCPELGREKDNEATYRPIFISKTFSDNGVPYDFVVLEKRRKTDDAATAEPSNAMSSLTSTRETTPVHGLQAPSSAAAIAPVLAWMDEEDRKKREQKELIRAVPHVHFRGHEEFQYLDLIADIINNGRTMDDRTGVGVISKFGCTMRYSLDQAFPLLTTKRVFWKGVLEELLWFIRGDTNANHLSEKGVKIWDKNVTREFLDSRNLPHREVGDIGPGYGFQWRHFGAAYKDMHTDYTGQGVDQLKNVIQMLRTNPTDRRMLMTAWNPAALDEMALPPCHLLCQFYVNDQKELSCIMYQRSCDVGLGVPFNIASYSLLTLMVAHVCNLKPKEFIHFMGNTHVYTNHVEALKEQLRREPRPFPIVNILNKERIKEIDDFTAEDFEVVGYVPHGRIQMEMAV
measurementKind: IC50 (nM)

>>> numericvalue("Nc1nc(N)c2nc(CSc3ccc(Sc4ccccc4)cc3)cnc2n1")
770
